Test system: TK-10 renal
Assay: NCI tumour cell line growth inhibition, 48 h
readout-name: TGI (µM)
Numeric answer only, unit µM assumed.

The examples below pair each entry with its known result.
| compound | experimental-system | readout-name | unit-text | recorded-number |
| --- | --- | --- | --- | --- |
| CCOC(=O)c1c2c(n3ccccc13)C(=O)c1ncccc1C2=O | TK-10 renal | TGI | µM | 20.2 |
| Cc1cc(N2CCOCC2)cc2[nH]c(-c3c(NC[C@@H](O)c4cccc(Cl)c4)cc[nH]c3=O)nc12 | TK-10 renal | TGI | µM | 4.4 |
| CC(=O)O[C@H]1[C@H](OC(=O)CC(C)(O)CC(=O)O)C[C@]2(C)C3=C(CCC2C1(C)C)[C@]1(C)CC[C@H]([C@H]2CC[C@H](C(C)(C)O)OC2O)[C@@]1(C)[C@@H](O)C3 (stereo not given in full) | TK-10 renal | TGI | µM | 63.4 |

Here's the next entry for you.
Which TGI is reported for this compound? CC(C)(C)OC(=O)N1C(c2cccnc2)=CC[C@H]2C3CC=C(c4cccnc4)[C@@]3(C)CC[C@@H]21 (stereo not given in full)
19.7

###

System: SF-268 CNS
Assay: NCI tumour cell line growth inhibition, 48 h
Each entry below carries its reported TGI.

The examples below pair each entry with its known result.
| compound | TGI |
| --- | --- |
| COC(=O)[C@@H](C)C[C@H](Cc1ccccc1)NC(=O)c1csc([C@@H](C[C@H](C(C)C)N(C)C(=O)[C@@H](NC(=O)[C@H]2CCCCN2C)C2CC2)OC(C)=O)n1 | > 16.5 µM |
| COc1cc2c(cc1OC)C13CCN4CC5CCOC6CC(=O)N2C1C6C5CC43 (centres undefined) | > 100 µM |
| CN(C)CC/[N+]([O-])=C(/c1ccccc1)C12CC3CC(CC(C3)C1)C2 | 35.9 µM |
| N#C/C(=C\c1ccc(Br)cc1)n1nnc2ccc(F)cc21 | 4.33 µM |
| COC(=O)CC[C@H](Cc1ccccc1)NC(=O)c1csc([C@@H](C[C@H](C(C)C)N(C)C(=O)[C@@H](NC(=O)[C@H]2CCCCN2C)C(C)C)OC(C)=O)n1 | > 25 µM |

Which TGI is reported for this compound? Nc1onc2c1Cc1c(noc1N)-c1ccccc1-2
> 100 µM

Which TGI is reported for this compound? COc1ccccc1NC(=O)CC(=O)N/N=C/c1ccc(N(CCC#N)S(=O)(=O)c2ccccc2)cc1
> 100 µM

Which TGI is reported for this compound? CC(=O)Nc1ccc(/C=C/C(=O)N2CC(CCl)c3c2cc(N)c2ccccc32)cc1 (centres undefined)
0.0208 µM

Which TGI is reported for this compound? Cc1ccnc(NC(NC(=O)c2ccccc2)(C(F)(F)F)C(F)(F)F)c1
> 100 µM

Which TGI is reported for this compound? CC(=O)Nc1c(C)cc2c(nc3n2CCC3O)c1[N+](=O)[O-] (centres undefined)
> 100 µM

###

Each entry below carries its reported TGI.
Test system: HCT-15 colon
Assay: NCI tumour cell line growth inhibition, 48 h

| molecule | TGI |
| --- | --- |
| COc1cc(/C=c2\sc3n(c2=O)C(c2ccc(Cl)cc2)C2=C(CCCC2C)N=3)cc(OC)c1OC (stereo unspecified) | > 100 µM |

Entry N#CC1CC2(CCN1C(=O)c1ccccc1)OCCO2 (stereo unspecified) , system HCT-15 colon: what TGI was measured?
> 100 µM

Entry C[C@@H]1CC[C@@H]2[C@@H](C1)O[C@@H]([C@H](C)OCc1ccccc1)SC2(C)C , system HCT-15 colon: what TGI was measured?
82.7 µM

Entry C=C(C)[C@@H]1CCC2=C[C@H](OC2=O)[C@@]2(C)C[C@@H]2C2=CC(C)=C(O2)[C@H]1O , system HCT-15 colon: what TGI was measured?
> 75 µM

Entry O=c1cccccc1[O-].O=c1cccccc1[O-].O=c1cccccc1[O-].[La+3] , system HCT-15 colon: what TGI was measured?
> 100 µM

Entry C=C(c1ccccc1)[C@@]1(O)CC[C@@H]1N(CC#N)Cc1ccccc1 , system HCT-15 colon: what TGI was measured?
34.6 µM

Entry N[C@H]1CCCC[C@@H]1N1C(=O)c2ccccc2C1(O)c1ccc(Cl)cc1 (stereo partly specified) , system HCT-15 colon: what TGI was measured?
26.7 µM

Entry CN(C)CCNC(=O)c1ccc(NC(=O)c2nc([N+](=O)[O-])cn2C)cc1 , system HCT-15 colon: what TGI was measured?
> 100 µM

Entry CC(=O)Nc1c(C)cc2c(nc3n2CCC3O)c1[N+](=O)[O-] (stereo unspecified) , system HCT-15 colon: what TGI was measured?
> 100 µM

Entry N/C(=N\N=C\c1ccc2c(c1)OCCO2)NO , system HCT-15 colon: what TGI was measured?
> 100 µM

Entry COc1cc(/C=C/C(=O)C2(C(=O)/C=C/c3cc(OC)c(OC)c(OC)c3)CCCCC2)cc(OC)c1OC , system HCT-15 colon: what TGI was measured?
> 100 µM

Entry CN(C)c1nc(Cl)c2c(-c3ccccc3)c(-c3ccccc3)oc2n1 , system HCT-15 colon: what TGI was measured?
> 100 µM

Entry CCOC(=O)c1c2c(n3ccccc13)C(=O)c1ncccc1C2=O , system HCT-15 colon: what TGI was measured?
12.8 µM

Entry Cc1nc2c(=O)n(C)ncc2[nH]1 , system HCT-15 colon: what TGI was measured?
> 100 µM

Entry COC(=O)CC[C@H](Cc1ccccc1)NC(=O)c1csc([C@@H](C[C@H](C(C)C)N(C)C(=O)[C@@H](NC(=O)[C@H]2CCCCN2C)C(C)C)OC(C)=O)n1 , system HCT-15 colon: what TGI was measured?
> 25 µM

Entry COc1cc(CNNC(N)=S)cc(OC)c1OC , system HCT-15 colon: what TGI was measured?
> 100 µM

Entry Oc1ccc2c(c1)-c1c(c3ccccc3n1CCN1CCOCC1)CC2 , system HCT-15 colon: what TGI was measured?
> 100 µM

Entry Oc1ccc2oc3ncc(Br)c(-c4ccccc4)c3c2c1 , system HCT-15 colon: what TGI was measured?
> 100 µM

Entry O=Cc1c(O)c(C(=O)Nc2ccc3[nH]c(=O)[nH]c3c2)cc2ccccc12 , system HCT-15 colon: what TGI was measured?
> 100 µM

Entry NC(N)=Nc1ccc(CC(N)C(=O)O)cc1 (stereo unspecified) , system HCT-15 colon: what TGI was measured?
> 12.5 µM

Entry NC(=S)N/N=C\c1nccc2ccccc12 , system HCT-15 colon: what TGI was measured?
> 100 µM

Reference for the values: PubChem BioAssay (NCI)
